What cAMP Emax, HKRK-B7 cells was measured for each of the following?
Tested Target: T1, human PTH-1 receptor (human, UniProt Q03431 27-593)
T1 sequence (looked up): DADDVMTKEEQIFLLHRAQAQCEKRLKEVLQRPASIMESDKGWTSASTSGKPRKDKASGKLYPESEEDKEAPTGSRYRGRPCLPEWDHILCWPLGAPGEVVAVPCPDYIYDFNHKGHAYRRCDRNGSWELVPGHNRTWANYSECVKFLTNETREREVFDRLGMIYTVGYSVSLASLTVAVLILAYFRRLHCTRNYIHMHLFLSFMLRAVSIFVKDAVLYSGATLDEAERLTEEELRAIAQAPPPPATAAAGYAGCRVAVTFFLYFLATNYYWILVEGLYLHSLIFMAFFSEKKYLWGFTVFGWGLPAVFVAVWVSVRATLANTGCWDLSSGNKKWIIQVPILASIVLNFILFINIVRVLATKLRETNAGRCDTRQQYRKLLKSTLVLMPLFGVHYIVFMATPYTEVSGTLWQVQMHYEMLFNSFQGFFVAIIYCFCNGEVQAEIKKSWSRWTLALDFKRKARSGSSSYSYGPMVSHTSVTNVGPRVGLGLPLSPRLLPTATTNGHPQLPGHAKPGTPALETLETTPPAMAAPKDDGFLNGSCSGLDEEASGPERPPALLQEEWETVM
Assay Details: cell-based or functional assay
Non-standard residues stand in square brackets, D forms with d. No end group written: not given here. Nle = CCCC[C@H](N)C(=O)O
A number alone suffices; assume picomole/well.

query: May I ask what cAMP Emax, HKRK-B7 cells has been recorded for AVAEIQLMHARAKW-NH2 [[A3, A10, R11, A12, W14]rPTH(1-14)] ?
result: 262

query: // same read-out, input: AVSEIQL[Nle]HNLGKHLASVER[Nle]QWLRKKLQDVHNY-NH2 [[Nle^8,21,Tyr^34]-rPTH(1-34)NH2]
result: 293

query: // same read-out, input: AVAEIQLMHQRAKH-NH2 [[A3, Q10, R11, A12]rPTH(1-14)]
result: 235

query: // same read-out, input: AVAEIQLMHARA-NH2 [[A3, A10, R11, A12]rPTH(1-12)]
result: 238

query: // same read-out, input: AVSEIQLMHNLGKH-NH2 [native rPTH(1-14)]
result: 299

query: // same read-out, input: AVAEIQLMHARAKH-NH2 [[A3, A10, R11, A12]rPTH(1-14)]
result: 264

query: // same read-out, input: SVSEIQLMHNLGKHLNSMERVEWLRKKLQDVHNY-NH2 [[Tyr^34]human (h)PTH(1-34)NH2]
result: 270

query: // same read-out, input: AVAEIQLMHARAK-NH2 [[A3, A10, R11, A12]rPTH(1-13)]
result: 239

query: // same read-out, input: AVAEIQLMHARAKHLNSMERVEWLRKKLQDVHNY-NH2 (also called peptide #7; #7) [[A1, A3, A10, R11, A12, Y34]hPTH(1-34)]
result: 244

query: // same read-out, input: AVAEIQLMHAR-NH2 [[A3, A10, R11]rPTH(1-11)]
result: 248
